Collected Kd values appear next to each entry.
# MEASURED ON: HLA-A*03:01
# ASSAY COMMENT: IEDB peptide-MHC binding, purified MHC/direct/fluorescence; filed as Kd, often an IC50 or EC50 that approximates it; bounds were set here for any values at or beyond the usual limits of such assays
# SETTINGS: source organism: Influenza A virus (A/Puerto Rico/8/34/Mount Sinai(H1N1))
MEASURED PARAMETER: Kd (nM)

YMFESKSMK ... 232
KMARLGKGY ... 252

---

# MEASURED ON: HLA-A*69:01
# ASSAY COMMENT: IEDB peptide-MHC binding, purified MHC/direct/fluorescence; filed as Kd, often an IC50 or EC50 that approximates it; bounds were set here for any values at or beyond the usual limits of such assays
# SETTINGS: source organism: Brucella abortus
MEASURED PARAMETER: Kd

SRIGAWASK ... ≥ 20 µM

---

# MEASURED ON: HLA-B*38:01
# ASSAY COMMENT: IEDB peptide-MHC binding, purified MHC/direct/fluorescence; filed as Kd, often an IC50 or EC50 that approximates it; bounds were set here for any values at or beyond the usual limits of such assays
# SETTINGS: source organism: Candidatus Rickettsia tarasevichiae
MEASURED PARAMETER: Kd

SSEADCFTY ... ≥ 20 µM

---

# MEASURED ON: HLA-B*51:01
# ASSAY COMMENT: IEDB peptide-MHC binding, purified MHC/competitive/fluorescence; filed as Kd, often an IC50 or EC50 that approximates it; bounds were set here for any values at or beyond the usual limits of such assays
# SETTINGS: source organism: Salmonella enterica subsp. enterica serovar Typhi
pKd: −log10 of the molar value.
MEASURED PARAMETER: pKd

NPLWPFETV ... 6.64

---

# MEASURED ON: HLA-B*15:01
# ASSAY COMMENT: IEDB peptide-MHC binding, purified MHC/competitive/fluorescence; filed as Kd, often an IC50 or EC50 that approximates it; bounds were set here for any values at or beyond the usual limits of such assays
# SETTINGS: source organism: Reston ebolavirus
MEASURED PARAMETER: Kd

ITDEINQIK ... ≥ 20 µM

---

# MEASURED ON: HLA-A*03:01
# ASSAY COMMENT: IEDB peptide-MHC binding, purified MHC/direct/fluorescence; filed as Kd, often an IC50 or EC50 that approximates it; bounds were set here for any values at or beyond the usual limits of such assays
# SETTINGS: source organism: Giardia intestinalis
MEASURED PARAMETER: Kd

INTLESMMK ... ≥ 20 µM

---

# MEASURED ON: HLA-A*68:23
# ASSAY COMMENT: IEDB peptide-MHC binding, purified MHC/competitive/fluorescence; filed as Kd, often an IC50 or EC50 that approximates it; bounds were set here for any values at or beyond the usual limits of such assays
# SETTINGS: source organism: Salmonella enterica subsp. enterica serovar Typhi
MEASURED PARAMETER: Kd (nM)

WTFTPTTPL ... 0.4

---

# MEASURED ON: HLA-B*18:01
# ASSAY COMMENT: IEDB peptide-MHC binding, purified MHC/direct/fluorescence; filed as Kd, often an IC50 or EC50 that approximates it; bounds were set here for any values at or beyond the usual limits of such assays
# SETTINGS: source organism: Mammarenavirus lassaense
MEASURED PARAMETER: Kd

SHGIDVTDL ... ≥ 20 µM
